Biological target: T135A rat arginase I (Rattus norvegicus, UniProt P07824, T135A)
Sequence (P07824 whole entry T135A): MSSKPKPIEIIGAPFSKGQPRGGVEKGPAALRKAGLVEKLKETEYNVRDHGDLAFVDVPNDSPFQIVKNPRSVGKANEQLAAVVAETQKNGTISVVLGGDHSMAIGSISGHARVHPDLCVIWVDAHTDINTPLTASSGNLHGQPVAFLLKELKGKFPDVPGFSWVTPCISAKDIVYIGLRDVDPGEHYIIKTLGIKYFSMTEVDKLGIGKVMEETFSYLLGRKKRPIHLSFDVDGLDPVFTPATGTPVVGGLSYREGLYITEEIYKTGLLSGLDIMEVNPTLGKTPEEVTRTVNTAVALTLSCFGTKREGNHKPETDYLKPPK
Assay: 14C-urea radioactive arginase assay, T135A rat arginase I
quantity-kind: Ki (µM)
Output spec: scalar in µM, unitless text.

Problem: Look up Ki of N[C@@H](CSCCB(O)O)C(=O)O [BEC, S-(2-boronoethyl)-L-cysteine] and report it.
Result: 4.5
